Assay: Human HepG2 cell viability assay in 384 well format
Format: toxicity, cell-based
Design: dose 125 nL, time 70.5 hour; concentration not given beside the values
Conditions: HepG2 cells, read-out: Inhibition
readout-label: cytotoxicity at 70.5 h (%)
Entry rule: numbers only, all in %.

Below are worked cases with known answers.
{"compound": "FC(F)CN1CCC(NCc2ccc(-n3cccn3)nc2)CC1", "cytotoxicity at 70.5 h / %": -9.95}
{"compound": "CN(C)c1ncnc2c1CCN(C(=O)CN1CCCCC1)C2", "cytotoxicity at 70.5 h / %": -7.37}
{"compound": "Cn1nnc(NCc2ccc(-c3ccc(Br)cc3)o2)n1", "cytotoxicity at 70.5 h / %": -9.29}

Data request, read-out cytotoxicity at 70.5 h, for `O=c1cc(CN(CCO)C2CC2)nc2ccc(Br)cn12`
-4.99

Data request, read-out cytotoxicity at 70.5 h, for `c1ccc(C2CCN(c3ncnc4c3CCNC4)CC2)cc1`
-4.79

Data request, read-out cytotoxicity at 70.5 h, for `CC(C)N(C)CC(=O)NCc1ccccc1N1CCN(C)CC1`
9.3

Data request, read-out cytotoxicity at 70.5 h, for `Cc1nccc(N[C@H]2CN(CCC(=O)NC3CCCC3)C[C@@H]2C2CC2)n1`
-2.83

Data request, read-out cytotoxicity at 70.5 h, for CN1N=C(C(=O)N2CCCC(CCc3ccccc3F)C2)CCC1=O (stereo unspecified)
-5.83

Data request, read-out cytotoxicity at 70.5 h, for CN1CCCC(CNS(=O)(=O)N2CCc3ccccc3C2)C1 (stereo unspecified)
-10.7

Data request, read-out cytotoxicity at 70.5 h, for Cc1noc(CCCC(=O)N2CCN(C)CC2c2ccccc2)n1 (stereo unspecified)
29.2

Data request, read-out cytotoxicity at 70.5 h, for CCCn1ncc(-c2ccnc(NC3CCCc4ccccc43)n2)c1C (stereo unspecified)
55.9

Data request, read-out cytotoxicity at 70.5 h, for `COc1ccc([C@@H]2CN(C(=O)Cc3cccs3)C[C@H]2NC(C)=O)cc1`
-4.36

Data request, read-out cytotoxicity at 70.5 h, for `Cc1nc(C)c(C(=O)N(C)Cc2cnn(C)c2)s1`
1.01

###

Assay: Human HepG2 cell viability assay in 384 well format
Assay type: toxicity, cell-based
Set-up: dose 125 nL, time 70.5 hour; concentration not given beside the values
Conditions: HepG2 cells, read-out: Inhibition
The following compounds are listed with their measured cytotoxicity at 70.5 h values.
Entry rule: numbers only, all in %.

Below are worked cases with known answers.
{"compound": "Cc1nc2ccnn2c(C)c1CCC(=O)N1CCN(C2CC2)CC1", "reported-measurement": 15.8}
{"compound": "COCCNC(=O)CCc1c(C)nn(-c2nc(C)c(C)c(=O)[nH]2)c1C", "reported-measurement": -1.63}
{"compound": "CCn1nc(C)c(C(C)NC(=O)c2cnc(N(C)C)nc2C)c1C (configuration not stated)", "reported-measurement": 1.08}

Data request, read-out cytotoxicity at 70.5 h, for `O=C1CC[C@@H]2[C@@H](CCN2C(=O)c2ccsc2)N1Cc1ccncc1`
0.223

Data request, read-out cytotoxicity at 70.5 h, for COCCC1(C(=O)O)CCCN(Cc2cc3c(cc2C)OCO3)C1 (configuration not stated)
-2.46

Data request, read-out cytotoxicity at 70.5 h, for Cc1cc(C(=O)N2CCCC3(CN(C)C(=O)O3)C2)c2ccc(F)cc2n1 (configuration not stated)
16.1
